# SUBJECT OF TEST: Aurora kinase C (Homo sapiens) (UniProt Q9UQB9)
# Sequence (Q9UQB9 whole entry): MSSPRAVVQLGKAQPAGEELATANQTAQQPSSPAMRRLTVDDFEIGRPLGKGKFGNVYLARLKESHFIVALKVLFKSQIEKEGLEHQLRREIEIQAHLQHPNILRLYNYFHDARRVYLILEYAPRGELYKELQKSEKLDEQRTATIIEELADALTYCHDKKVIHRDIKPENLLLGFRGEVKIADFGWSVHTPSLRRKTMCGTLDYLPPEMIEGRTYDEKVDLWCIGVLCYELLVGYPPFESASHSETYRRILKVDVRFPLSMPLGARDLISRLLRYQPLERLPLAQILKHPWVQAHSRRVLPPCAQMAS
# CONDITION NOTES: at 1 µM
// reported residual activity per item
RECORDED ENDPOINT: residual activity (%)

smiles_repr=CC(C)[C@H](CO)Nc1nc(Nc2cc(N)cc(Cl)c2)c2ncn(C(C)C)c2n1 recorded_endpoint="residual activity" result=91
smiles_repr=N#Cc1c(NC(=O)c2cccc3ccccc23)sc2c1CCCC2 recorded_endpoint="residual activity" result=98
smiles_repr=O=C1Nc2ccc(Cl)cc2/C1=C/c1cc(Cl)c(O)c(Cl)c1 recorded_endpoint="residual activity" result=96
smiles_repr=CCOc1nc(NC(=O)Cc2cc(OC)ccc2OC)cc(N)c1C#N recorded_endpoint="residual activity" result=78

* * *

# SUBJECT OF TEST: Serine/threonine-protein kinase WNK2 (Homo sapiens)
# CONDITION NOTES: at 1 µM
# Description: Millipore: Percentage of residual kinase activity of WNK2 at 1uM relative to control. Control inhibitor: Phosphoric acid* at 0.3uM. Buffer: 8 mM MOPS pH 7.0, 0.2 mM EDTA
Measured residual activity of individual entries
RECORDED ENDPOINT: residual activity (%)

smiles_repr=CCCCc1c(-c2ccc(OC)cc2)[nH]c2nccnc12 recorded_endpoint="residual activity" result=105
smiles_repr=O=c1cc(N2CCOCC2)oc2c1ccc1ccccc12 recorded_endpoint="residual activity" result=110
smiles_repr=COc1cc2nccc(Oc3ccc(NC(=S)NC(=O)c4ccccc4C)cc3)c2cc1OC recorded_endpoint="residual activity" result=76
smiles_repr=COc1cc2nccc(Oc3ccc(NC(=O)Nc4cc(C)on4)c(Cl)c3)c2cc1OC recorded_endpoint="residual activity" result=100
smiles_repr=NC(=O)c1cccc(-c2cc(Nc3ccc(OC(F)(F)F)cc3)ncn2)c1 recorded_endpoint="residual activity" result=124
smiles_repr=O=C(c1cc2cc(O)ccc2[nH]1)c1cc2cc(O)ccc2[nH]1 recorded_endpoint="residual activity" result=83
smiles_repr=COc1ccc2c(c1)c(C1=C(c3c[nH]c4ccccc34)C(=O)NC1=O)cn2CCCN(C)C recorded_endpoint="residual activity" result=107
smiles_repr=Nc1ncnc2[nH]nc(Nc3ccc(F)cc3)c12 recorded_endpoint="residual activity" result=101
smiles_repr=O=C1Cc2c([nH]c3ccc(Br)cc23)-c2ccccc2N1 recorded_endpoint="residual activity" result=93

* * *

# SUBJECT OF TEST: Fibroblast growth factor receptor 3 (Homo sapiens) (UniProt P22607)
# Sequence (P22607 23-806 limits assumed): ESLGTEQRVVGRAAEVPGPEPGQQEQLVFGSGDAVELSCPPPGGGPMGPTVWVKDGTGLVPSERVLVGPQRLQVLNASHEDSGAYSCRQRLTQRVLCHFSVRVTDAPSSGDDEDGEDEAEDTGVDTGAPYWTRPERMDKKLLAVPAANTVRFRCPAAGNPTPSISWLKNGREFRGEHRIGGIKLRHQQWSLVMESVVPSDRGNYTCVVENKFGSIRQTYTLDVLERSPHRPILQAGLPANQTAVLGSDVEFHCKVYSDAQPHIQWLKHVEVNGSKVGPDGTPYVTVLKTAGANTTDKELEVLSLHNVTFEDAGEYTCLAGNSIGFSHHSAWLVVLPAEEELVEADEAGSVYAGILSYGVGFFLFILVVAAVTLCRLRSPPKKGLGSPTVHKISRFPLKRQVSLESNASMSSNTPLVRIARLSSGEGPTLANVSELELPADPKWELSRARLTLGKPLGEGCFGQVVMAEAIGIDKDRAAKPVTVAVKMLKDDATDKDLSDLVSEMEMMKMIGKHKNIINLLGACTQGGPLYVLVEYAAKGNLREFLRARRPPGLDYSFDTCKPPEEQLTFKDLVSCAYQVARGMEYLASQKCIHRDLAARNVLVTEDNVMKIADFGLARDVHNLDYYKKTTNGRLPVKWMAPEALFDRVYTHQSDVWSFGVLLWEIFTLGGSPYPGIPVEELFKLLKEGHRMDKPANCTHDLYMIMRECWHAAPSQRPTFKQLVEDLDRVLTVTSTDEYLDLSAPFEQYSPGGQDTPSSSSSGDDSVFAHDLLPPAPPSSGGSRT
# CONDITION NOTES: at 1 µM
Recorded residual activity values for a group of molecules are listed next.
RECORDED ENDPOINT: residual activity (%)

smiles_repr=COc1ccc(CNC(=O)Nc2ncc([N+](=O)[O-])s2)cc1 subject_of_test="Fibroblast growth factor receptor 3 (Homo sapiens) (UniProt P22607)" result=112
smiles_repr=Cn1sc(=O)n(Cc2ccccc2)c1=O subject_of_test="Fibroblast growth factor receptor 3 (Homo sapiens) (UniProt P22607)" result=135
smiles_repr=COc1ccc2c(c1)c(C1=C(c3c[nH]c4ccccc34)C(=O)NC1=O)cn2CCCN(C)C subject_of_test="Fibroblast growth factor receptor 3 (Homo sapiens) (UniProt P22607)" result=63
smiles_repr=O=c1cc(N2CCOCC2)oc2c(-c3ccccc3)cccc12 subject_of_test="Fibroblast growth factor receptor 3 (Homo sapiens) (UniProt P22607)" result=101
smiles_repr=Nc1nc(Nc2ccc(S(N)(=O)=O)cc2)nn1C(=O)c1c(F)cccc1F subject_of_test="Fibroblast growth factor receptor 3 (Homo sapiens) (UniProt P22607)" result=29

* * *

# SUBJECT OF TEST: Tyrosine-protein kinase ABL1 (Homo sapiens) (UniProt P00519)
# Sequence (P00519 whole entry): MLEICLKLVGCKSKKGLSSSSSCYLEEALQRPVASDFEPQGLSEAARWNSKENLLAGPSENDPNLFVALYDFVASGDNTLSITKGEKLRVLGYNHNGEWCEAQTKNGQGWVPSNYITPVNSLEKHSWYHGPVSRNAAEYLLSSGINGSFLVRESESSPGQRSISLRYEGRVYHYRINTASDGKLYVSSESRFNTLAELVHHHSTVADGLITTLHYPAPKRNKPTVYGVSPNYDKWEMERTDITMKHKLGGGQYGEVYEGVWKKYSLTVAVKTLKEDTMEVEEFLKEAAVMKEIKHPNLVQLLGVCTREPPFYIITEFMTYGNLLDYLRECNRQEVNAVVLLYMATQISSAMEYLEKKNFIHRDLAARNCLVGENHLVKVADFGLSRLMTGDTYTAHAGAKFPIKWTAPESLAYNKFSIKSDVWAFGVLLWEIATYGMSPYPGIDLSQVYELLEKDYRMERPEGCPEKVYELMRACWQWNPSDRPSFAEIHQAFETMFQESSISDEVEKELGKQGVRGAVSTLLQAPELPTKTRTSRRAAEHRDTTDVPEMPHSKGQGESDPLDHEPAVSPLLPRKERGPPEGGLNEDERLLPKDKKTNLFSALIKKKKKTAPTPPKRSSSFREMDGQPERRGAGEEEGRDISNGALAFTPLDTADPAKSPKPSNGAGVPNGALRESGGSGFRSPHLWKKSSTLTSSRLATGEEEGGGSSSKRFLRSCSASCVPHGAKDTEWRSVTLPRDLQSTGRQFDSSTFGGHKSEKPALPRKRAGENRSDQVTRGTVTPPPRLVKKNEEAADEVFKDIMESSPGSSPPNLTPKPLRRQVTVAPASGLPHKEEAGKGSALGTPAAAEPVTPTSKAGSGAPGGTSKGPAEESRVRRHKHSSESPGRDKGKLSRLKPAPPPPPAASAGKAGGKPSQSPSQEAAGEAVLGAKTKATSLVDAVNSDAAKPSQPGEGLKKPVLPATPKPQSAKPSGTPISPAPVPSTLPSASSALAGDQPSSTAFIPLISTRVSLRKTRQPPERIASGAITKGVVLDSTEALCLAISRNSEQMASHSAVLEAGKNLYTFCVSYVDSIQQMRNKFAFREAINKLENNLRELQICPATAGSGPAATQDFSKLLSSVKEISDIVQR
# CONDITION NOTES: at 10 µM
RECORDED ENDPOINT: residual activity (%)

smiles_repr=CCN(CC)CCNC(=O)c1c(C)[nH]c(/C=C2\C(=O)Nc3ccc(Cl)cc32)c1C subject_of_test="Tyrosine-protein kinase ABL1 (Homo sapiens) (UniProt P00519)" recorded_endpoint="residual activity" result=0
smiles_repr=Nc1n[nH]c2nc3ccccc3nc12 subject_of_test="Tyrosine-protein kinase ABL1 (Homo sapiens) (UniProt P00519)" recorded_endpoint="residual activity" result=73
smiles_repr=CCCCc1c(-c2ccc(OC)cc2)[nH]c2nccnc12 subject_of_test="Tyrosine-protein kinase ABL1 (Homo sapiens) (UniProt P00519)" recorded_endpoint="residual activity" result=80

* * *

# SUBJECT OF TEST: Mitogen-activated protein kinase kinase kinase 5 (Homo sapiens)
# Sequence (whole entry): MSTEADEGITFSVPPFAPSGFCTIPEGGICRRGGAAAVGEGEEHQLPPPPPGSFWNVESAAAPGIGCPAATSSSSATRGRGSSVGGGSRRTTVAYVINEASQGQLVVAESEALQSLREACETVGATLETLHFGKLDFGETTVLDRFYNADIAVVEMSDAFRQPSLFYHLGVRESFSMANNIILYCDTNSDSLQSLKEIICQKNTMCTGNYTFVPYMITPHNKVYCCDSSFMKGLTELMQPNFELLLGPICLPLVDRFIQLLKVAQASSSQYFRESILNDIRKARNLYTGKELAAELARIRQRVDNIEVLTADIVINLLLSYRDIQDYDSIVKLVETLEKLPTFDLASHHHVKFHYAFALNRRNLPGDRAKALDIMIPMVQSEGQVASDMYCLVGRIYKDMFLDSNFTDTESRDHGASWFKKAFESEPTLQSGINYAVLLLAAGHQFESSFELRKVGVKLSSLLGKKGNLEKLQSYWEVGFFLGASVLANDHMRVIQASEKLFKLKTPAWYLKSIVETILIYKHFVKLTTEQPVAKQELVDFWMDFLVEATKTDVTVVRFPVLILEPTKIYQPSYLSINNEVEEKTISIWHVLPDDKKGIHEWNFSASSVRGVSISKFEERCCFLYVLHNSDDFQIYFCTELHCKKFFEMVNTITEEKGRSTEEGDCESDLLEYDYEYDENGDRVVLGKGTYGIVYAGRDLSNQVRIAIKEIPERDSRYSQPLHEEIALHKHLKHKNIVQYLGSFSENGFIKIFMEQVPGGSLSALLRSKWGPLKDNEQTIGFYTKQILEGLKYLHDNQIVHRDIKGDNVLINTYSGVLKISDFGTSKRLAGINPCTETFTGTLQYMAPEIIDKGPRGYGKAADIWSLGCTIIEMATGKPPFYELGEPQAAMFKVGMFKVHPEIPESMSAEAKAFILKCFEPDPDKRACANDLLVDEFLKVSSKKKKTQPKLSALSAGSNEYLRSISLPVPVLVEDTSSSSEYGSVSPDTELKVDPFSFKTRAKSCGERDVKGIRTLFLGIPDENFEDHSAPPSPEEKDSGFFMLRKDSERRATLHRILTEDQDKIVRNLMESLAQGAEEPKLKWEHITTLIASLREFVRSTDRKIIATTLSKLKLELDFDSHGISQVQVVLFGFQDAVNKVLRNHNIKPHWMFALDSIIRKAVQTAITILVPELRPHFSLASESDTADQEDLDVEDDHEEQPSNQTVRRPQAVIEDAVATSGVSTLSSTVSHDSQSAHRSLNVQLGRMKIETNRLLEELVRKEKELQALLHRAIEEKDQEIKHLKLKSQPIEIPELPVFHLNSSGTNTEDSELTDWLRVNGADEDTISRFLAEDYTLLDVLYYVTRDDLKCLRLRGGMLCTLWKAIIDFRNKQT
# CONDITION NOTES: at 10 µM
RECORDED ENDPOINT: residual activity (%)

smiles_repr=O=C1NC(=O)C(c2cn(CCCO)c3ncccc23)=C1c1cnccn1 result=78
smiles_repr=N#C/C(=C1/Nc2ccccc2S1)c1ccnc(NCCc2cccnc2)n1 result=79
smiles_repr=N#Cc1c(NC(=O)c2cccc3ccccc23)sc2c1CCCC2 result=80

* * *

# SUBJECT OF TEST: Aurora kinase A (Homo sapiens) (UniProt O14965)
# Sequence (O14965 whole entry): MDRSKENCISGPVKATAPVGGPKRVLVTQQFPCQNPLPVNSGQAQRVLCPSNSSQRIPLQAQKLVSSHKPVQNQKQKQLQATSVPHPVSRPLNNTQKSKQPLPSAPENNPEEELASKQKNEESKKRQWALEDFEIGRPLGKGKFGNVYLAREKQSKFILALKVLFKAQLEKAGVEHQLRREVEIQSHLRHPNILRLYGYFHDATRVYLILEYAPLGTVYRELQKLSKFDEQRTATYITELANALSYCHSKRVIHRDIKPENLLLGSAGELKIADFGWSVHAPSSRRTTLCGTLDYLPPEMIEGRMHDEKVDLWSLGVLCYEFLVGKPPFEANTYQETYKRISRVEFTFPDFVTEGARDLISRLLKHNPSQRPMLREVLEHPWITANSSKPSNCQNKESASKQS
# CONDITION NOTES: at 1 µM
RECORDED ENDPOINT: residual activity (%)

smiles_repr=O=C1NC(=O)C(c2c[nH]c3ccccc23)=C1c1c[nH]c2ccccc12 recorded_endpoint="residual activity" unit_abbrev=% result=80
smiles_repr=COc1ccc(Cl)cc1NC(=O)Nc1cc(C)nc2ccccc12 recorded_endpoint="residual activity" unit_abbrev=% result=89
smiles_repr=CC(C)(C)c1nc2c3ccc(F)cc3c3c(=O)[nH]ccc3c2[nH]1 recorded_endpoint="residual activity" unit_abbrev=% result=13
smiles_repr=COc1cc2nccc(Oc3ccc(NC(=O)Nc4cc(C)on4)c(Cl)c3)c2cc1OC recorded_endpoint="residual activity" unit_abbrev=% result=7
smiles_repr=Cn1c2ccccc2c2c3c(c4c5ccccc5n(CCC#N)c4c21)CNC3=O recorded_endpoint="residual activity" unit_abbrev=% result=4
smiles_repr=Nc1ncnc2[nH]nc(Nc3ccc(F)cc3)c12 recorded_endpoint="residual activity" unit_abbrev=% result=96
smiles_repr=NCCNc1ncc(C(N)=O)c(Nc2cccc(C(F)(F)F)c2)n1 recorded_endpoint="residual activity" unit_abbrev=% result=81
smiles_repr=COc1ccc2c(c1)c(C1=C(c3c[nH]c4ccccc34)C(=O)NC1=O)cn2CCCN(C)C recorded_endpoint="residual activity" unit_abbrev=% result=100
smiles_repr=Nc1n[nH]c2nc3ccccc3nc12 recorded_endpoint="residual activity" unit_abbrev=% result=91
smiles_repr=CCCCc1c(-c2ccc(OC)cc2)[nH]c2nccnc12 recorded_endpoint="residual activity" unit_abbrev=% result=9
smiles_repr=CC(C)(C)n1nc(Cc2cccc3ccccc23)c2c(N)ncnc21 recorded_endpoint="residual activity" unit_abbrev=% result=93
smiles_repr=CC(C)c1nn(-c2c(Cl)cccc2Cl)c2nc(Cc3ccc(OCCO)cc3)[nH]c(=O)c12 recorded_endpoint="residual activity" unit_abbrev=% result=83
smiles_repr=O=C(Nc1ccc(Cl)cc1)c1ccccc1NCc1ccncc1 recorded_endpoint="residual activity" unit_abbrev=% result=39
smiles_repr=O=C1Cc2c([nH]c3ccc(Br)cc23)-c2ccccc2N1 recorded_endpoint="residual activity" unit_abbrev=% result=97
smiles_repr=COc1ccc(COc2ccc(Cc3cnc(N)nc3N)cc2OC)cc1 recorded_endpoint="residual activity" unit_abbrev=% result=108
